The measurements presented in this section are drawn from PubChem BioAssay AID248.

T/C reference
Test system: L1210 leukemia ip in BDF1 mice, survival T/C
Assay: NCI In Vivo Anticancer Drug Screen. Data for tumor model L1210 Leukemia (intraperitoneal) in B6D2F1 (BDF1) mice
Settings: endpoint: mean survival time; dose: 200.0 mg/kg/injection; schedule: Q04DX003 (ip); vehicle: gum acacia; higher = longer survival
Toxic doses and inconclusive results are not listed.

chemical.smiles: COc1ccccc1NC(=O)Nc1c(C)cccc1C
T/C: 93 % of control

chemical.smiles: N#CCc1ccccc1C(=O)O
T/C: 91 % of control

chemical.smiles: COc1ccccc1NC(=O)Nc1ccc(C)c(C)c1
T/C: 98 % of control

chemical.smiles: COc1ccc(Cl)cc1-c1c(C(=O)O)cccc1[N+](=O)[O-]
T/C: 102 % of control

###

As shown below, each of these compounds has a reported T/C value.
Tested on: L1210 leukemia ip in BDF1 mice, survival T/C
Experiment: NCI In Vivo Anticancer Drug Screen. Data for tumor model L1210 Leukemia (intraperitoneal) in B6D2F1 (BDF1) mice
Conditions: endpoint: mean survival time; dose: 400.0 mg/kg/injection; schedule: Q01DX009 (ip); vehicle: Klucel (hydroxypropylcellulose) (HPC); higher = longer survival
Toxic doses and inconclusive results are not listed.

compound: c1ccc2cc3sccc3cc2c1
T/C: 93 % of control

compound: Brc1c(-c2ccccc2)cc(-c2ccccc2)cc1-c1ccccc1
T/C: 96 % of control

compound: CCc1ccccc1NC(=O)NCc1ccc(C)c(C)c1
T/C: 98 % of control

compound: N#CCCN(CCC#N)c1ccc(C=O)cc1
T/C: 96 % of control

compound: OC(CBr)c1ccc(Cl)c(Cl)c1 (configuration not stated)
T/C: 97 % of control

compound: CCOc1ccc(/C=N/NC(=O)COCC(=O)N/N=C/c2ccc(OCC)c(OC)c2)cc1OC
T/C: 103 % of control

compound: CCOC(=O)c1cnc(SC)nc1Nc1ccccc1C
T/C: 91 % of control

###

System: L1210 leukemia ip in BDF1 mice, survival T/C
Assay: NCI In Vivo Anticancer Drug Screen. Data for tumor model L1210 Leukemia (intraperitoneal) in B6D2F1 (BDF1) mice
Settings: endpoint: mean survival time; dose: 200.0 mg/kg/injection; schedule: Q04DX002 (ip); vehicle: Klucel (hydroxypropylcellulose) (HPC); higher = longer survival
Toxic doses and inconclusive results are not listed. Peptide text beside a SMILES is read from it. * marks the point of attachment. Boc = CC(C)(C)OC(=O)*
List of T/C values.
value.type: T/C

compound: O=C(O)CCc1nn(-c2ccccc2)c(=O)c2ccccc12
assay.value: 95 % of control
//
compound: O=[N+]([O-])c1ccc2c(c1)OCO2
assay.value: 88 % of control
//
compound: O=C(Nc1cccc2ccccc12)Oc1ccc(Cl)cc1Cc1ccccc1
assay.value: 89 % of control
//
compound: CCOc1ccc(CCOC(C)=O)cc1
assay.value: 101 % of control
//
compound: CC(=O)Nc1ccc(S(=O)(=O)Nc2cc(C)c(C)cc2C)cc1
assay.value: 91 % of control
//
compound: Cc1ccc(C)c(NC(=O)c2ccc([N+](=O)[O-])cc2)c1
assay.value: 89 % of control
//
compound: c1ccc(N2CN(c3ccccc3)CN(c3ccccc3)C2)cc1
assay.value: 101 % of control
//
compound: CS(=O)(=O)Cc1ccccc1
assay.value: 101 % of control
//
compound: CN(CCNC(=O)c1ccc(Cl)cc1)c1ccccc1
assay.value: 96 % of control
//
compound: COC1OC(CBr)C(OC(=O)c2ccccc2)C(OC(=O)c2ccccc2)C1OC(=O)c1ccccc1 (stereo unspecified)
assay.value: 96 % of control
//
compound: COC(=O)C(Cc1ccccc1)NC(=O)C(Cc1ccccc1)NC(=O)OC(C)(C)C (stereo not drawn) (Boc-Phe-Phe-OMe; configuration not given here)
assay.value: 101 % of control
